TARGET_UNDER_TEST: T1, Full-length human HER3 extracellular domain (ECD) (human, UniProt P21860 20-643)
T1 construct: also called human HER3 ECD; HER-3 ECD full length
TEST_DESCRIPTION: BIACORE 3000 SPR, mAb captured by anti-human Fc, ECD as analyte, 25 C
MEASURED_PARAMETER: koff

{"columns": ["BINDER", "koff"],
 "data": [
  ["1D9 H6L6 RR antibody (antibody, V domains shown, To be rechecked) VH: QVQLVQSGAEVKKPGASVKVSCKASGYTFTSYWMHWVRQAPGQGLEWMGVIDPSDGYSHYNQKFKGKVTLTVDTSISTAYMELSRLRSDDTAVYYCAGGLAGTLDYWGQGTTVTVSS VL: DVVMTQSPLSLPVTLGQPASISCRSSQSIVHSSGNTYLQWFQQRPGQSPRRLIYKVSNRFSGVPDRFSGSGSGTDFTLKISRVEAEDVGVYYCFQGSHVPWTFGQGTKLEIKR", "0.00487 s⁻¹"]
]}

Now look at this entry.
koff reading for 1D9 H6L5 RR antibody (antibody, V domains shown, also called 1D9 116L5 RR antibody) VH: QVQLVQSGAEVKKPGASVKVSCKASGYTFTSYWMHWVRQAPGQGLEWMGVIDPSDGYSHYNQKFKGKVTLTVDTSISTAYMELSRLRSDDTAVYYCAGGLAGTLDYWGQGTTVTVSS VL: DVLMTQSPSSLSASVGDRVTITCRSSQSIVHSSGNTYLQWFQQKPGKAPKLLISKVSNRFSGVPSRFSGSGSGTDFTLTISSLQPEDFAVYYCFQGSHVPWTFGQGTKLEIKR : 0.00371 s⁻¹
